- TARGET UNDER TEST: T1, human CD39 protein (recombinant) (human, UniProt P49961 38-478, limits assumed)
- T1 sequence: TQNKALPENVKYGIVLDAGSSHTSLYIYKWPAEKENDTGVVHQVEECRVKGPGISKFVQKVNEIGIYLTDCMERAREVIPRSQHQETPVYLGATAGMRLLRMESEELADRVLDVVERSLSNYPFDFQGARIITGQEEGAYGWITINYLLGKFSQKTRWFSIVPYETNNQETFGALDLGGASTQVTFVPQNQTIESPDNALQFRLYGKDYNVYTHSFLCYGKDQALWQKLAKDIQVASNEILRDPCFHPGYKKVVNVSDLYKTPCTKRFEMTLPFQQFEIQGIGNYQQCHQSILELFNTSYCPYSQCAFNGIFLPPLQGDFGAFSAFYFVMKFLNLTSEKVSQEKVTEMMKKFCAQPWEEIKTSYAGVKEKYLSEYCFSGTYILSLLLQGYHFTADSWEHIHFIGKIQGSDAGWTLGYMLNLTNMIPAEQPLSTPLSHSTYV
- PROTOCOL: cell-based or functional assay
Parameter: ATPase inhibition, inhibition %. Scope: all listed entries.
Lab book: enter the figure in %, no units written.

BINDER	READOUT UNITS	ATPase inhibition, inhibition %
HuEM0004-38-16 (antibody, human IgG1, kappa, L234A L235A, V domains shown, humanized mAb638, human IgG1/kappa) VH: EVQLVQSGAEVKKPGASVKVSCKASGYTFTSFWMHWVRQAPGQGLEWMGNINPRNGATKYNEKFRSRVTMTADTSISTAYMELSRLRSDDTAVYYCAREDYDEIYYAMDSWGQGTTVTVSS VL: ENVLTQSPATLSLSPGERATLSCSASSSVIYMYWFQQKPGQSPRVLIYDTSNLASGVPARFSGSGSGTDYTLTISSLEPEDFAVYYCQQWSTYPLTFGQGTKLEIKR	%	102
EM0004-38c1 (antibody, human IgG1, kappa, L234A L235A, name in Kabat numbering, V domains shown, chimeric mAb638 variant; also called EM004-38c1) VH: QVQLQQPGTELVKPGASVKLSCKASGYTFTSFWMHWVKQRPGQGLEWIGNINPRQGATKYNEKFRSKVTLTADKTSSTAYMHLSSLTSEDSAVYYCAREDYDEIYYAMDSWGQGTSVTVSS VL: QNVLTQSPAIMSASPGEKVTMTCSASSSVIYMYWFQQKPGSSPRVLIYDTSNLASGVPARFSGSGSGTSYSLTISRMEAEDAATYYCQQWSTYPLTFGAGTKLELKR	%	102
HuEM0004-38-17 (antibody, human IgG1, kappa, L234A L235A, V domains shown, humanized mAb638, human IgG1/kappa) VH: EVQLVQSGAEVKKPGASVKVSCKASGYTFTSFWMHWVRQAPGQGLEWMGNINPRNGATKYNEKFRSRVTMTADKSISTAYMELSRLRSDDTAVYYCAREDYDEIYYAMDSWGQGTTVTVSS VL: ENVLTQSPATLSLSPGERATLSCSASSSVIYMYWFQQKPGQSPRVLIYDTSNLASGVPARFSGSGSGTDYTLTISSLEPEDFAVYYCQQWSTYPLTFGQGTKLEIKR	%	103
HuEM0004-38-8 (antibody, human IgG1, kappa, L234A L235A, V domains shown, humanized mAb638, human IgG1/kappa) VH: EVQLVQSGAEVKKPGASVKVSCKASGYTFTSFWMHWVRQAPGQGLEWMGNINPRNGATKYNEKFRSRVTLTADKSISTAYMELSRLRSDDTAVYYCAREDYDEIYYAMDSWGQGTTVTVSS VL: ENVLTQSPATLSLSPGERATLSCSASSSVIYMYWFQQKPGQAPRLLIYDTSNLASGIPARFSGSGSGTDYTLTISSLEPEDFAVYYCQQWSTYPLTFGQGTKLEIKR	%	67.9
HuEM0004-38-9 (antibody, human IgG1, kappa, L234A L235A, V domains shown) VH: EVQLVQSGAEVKKPGASVKVSCKASGYTFTSFWMHWVRQAPGQGLEWIGNINPRNGATKYNEKFRSRVTLTADKSISTAYMELSRLRSDDTAVYYCAREDYDEIYYAMDSWGQGTTVTVSS VL: ENVLTQSPATLSLSPGERATLSCSASSSVIYMYWFQQKPGQAPRLLIYDTSNLASGIPARFSGSGSGTDYTLTISSLEPEDFAVYYCQQWSTYPLTFGQGTKLEIKR	%	61.6

So what does the record say about ATPase inhibition, inhibition % for HuEM0004-38-15 (antibody, human IgG1, kappa, L234A L235A, V domains shown, humanized mAb638, human IgG1/kappa) VH: EVQLVQSGAEVKKPGASVKVSCKASGYTFTSFWMHWVRQAPGQGLEWIGNINPRNGATKYNEKFRSKVTLTADKSISTAYMELSRLRSDDTAVYYCAREDYDEIYYAMDSWGQGTTVTVSS VL: ENVLTQSPATLSLSPGERATLSCSASSSVIYMYWFQQKPGQSPRVLIYDTSNLASGIPARFSGSGSGTDYTLTISSLEPEDFAVYYCQQWSTYPLTFGQGTKLEIKR ?
97.6

So what does the record say about ATPase inhibition, inhibition % for HuEM0004-38-11 (antibody, human IgG1, kappa, L234A L235A, V domains shown, humanized mAb638, human IgG1/kappa) VH: EVQLVQSGAEVKKPGASVKVSCKASGYTFTSFWMHWVRQAPGQGLEWMGNINPRNGATKYNEKFRSRVTMTADTSISTAYMELSRLRSDDTAVYYCAREDYDEIYYAMDSWGQGTTVTVSS VL: ENVLTQSPATLSLSPGERATLSCSASSSVIYMYWFQQKPGQSPRVLIYDTSNLASGIPARFSGSGSGTDYTLTISSLEPEDFAVYYCQQWSTYPLTFGQGTKLEIKR ?
99.6

So what does the record say about ATPase inhibition, inhibition % for HuEM0004-38-12 (antibody, human IgG1, kappa, L234A L235A, V domains shown, humanized mAb638, human IgG1/kappa) VH: EVQLVQSGAEVKKPGASVKVSCKASGYTFTSFWMHWVRQAPGQGLEWMGNINPRNGATKYNEKFRSRVTMTADKSISTAYMELSRLRSDDTAVYYCAREDYDEIYYAMDSWGQGTTVTVSS VL: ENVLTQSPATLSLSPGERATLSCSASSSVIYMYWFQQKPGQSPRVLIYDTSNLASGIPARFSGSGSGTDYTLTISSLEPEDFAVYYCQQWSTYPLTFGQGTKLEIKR ?
103

So what does the record say about ATPase inhibition, inhibition % for HuEM0004-38-6 (antibody, human IgG1, kappa, L234A L235A, V domains shown) VH: EVQLVQSGAEVKKPGASVKVSCKASGYTFTSFWMHWVRQAPGQGLEWMGNINPRNGATKYNEKFRSRVTMTADTSISTAYMELSRLRSDDTAVYYCAREDYDEIYYAMDSWGQGTTVTVSS VL: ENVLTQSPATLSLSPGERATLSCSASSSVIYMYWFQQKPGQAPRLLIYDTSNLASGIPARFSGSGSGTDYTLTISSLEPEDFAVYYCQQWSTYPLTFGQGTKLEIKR ?
64.1

So what does the record say about ATPase inhibition, inhibition % for HuEM0004-38-18 (antibody, human IgG1, kappa, L234A L235A, V domains shown, humanized mAb638, human IgG1/kappa) VH: EVQLVQSGAEVKKPGASVKVSCKASGYTFTSFWMHWVRQAPGQGLEWMGNINPRNGATKYNEKFRSRVTLTADKSISTAYMELSRLRSDDTAVYYCAREDYDEIYYAMDSWGQGTTVTVSS VL: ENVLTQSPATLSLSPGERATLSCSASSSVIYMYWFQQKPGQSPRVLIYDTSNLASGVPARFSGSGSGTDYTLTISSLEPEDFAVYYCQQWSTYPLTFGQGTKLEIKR ?
98.5

Just for reference, patent US20220389111A1 is where these values come from.
